- study.target: MAP1LC3B (Homo sapiens)
Residues, ends and D or L forms follow the SMILES beside them.
metric: Kd (µM)
Number in µM, nothing else.

CC(=O)N[C@@H](Cc1ccc(O)cc1)C(=O)N[C@@H](CCCCN)C(=O)N[C@@H](CCCCN)C(=O)N[C@@H](CCC(N)=O)C(=O)N[C@@H](CC(C)C)C(=O)N[C@@H](CCCCN)C(=O)N[C@@H](CCCNC(=N)N)C(=O)N[C@@H](Cc1ccccc1)C(=O)N[C@@H](CCC(=O)O)C(=O)N[C@H](C(=O)N[C@@H](CCC(=O)O)C(=O)N[C@@H](CCC(=O)O)C(=O)N[C@@H](Cc1ccccc1)C(=O)N[C@H](C(=O)N[C@@H](CC(C)C)C(=O)N[C@@H](CC(C)C)C(=O)O)C(C)C)[C@@H](C)O [ATG4C444–458 E] (Ac-YKKQLKRFETEEFVLL-OH)	4.6
CC(=O)N[C@@H](CCC(N)=O)C(=O)N[C@@H](CC(N)=O)C(=O)N[C@@H](CC(C)C)C(=O)N[C@@H](CO)C(=O)N[C@@H](CCCNC(=N)N)C(=O)N[C@@H](CO)C(=O)N[C@@H](Cc1c[nH]c2ccccc12)C(=O)N[C@@H](Cc1c[nH]cn1)C(=O)N[C@@H](CC(=O)O)C(=O)N[C@H](C(=O)N[C@@H](CCC(N)=O)C(=O)N[C@H](C(=O)N[C@@H](CO)C(=O)N[C@@H](CO)C(=O)N[C@@H](C)C(=O)N[C@@H](Cc1ccc(O)cc1)C(N)=O)C(C)C)C(C)C [TPD52L2_91–106 wt]	760
CC(=O)N[C@@H](CC(C)C)C(=O)N[C@@H](CCC(=O)O)C(=O)N[C@@H](CC(=O)O)C(=O)N[C@@H](CC(=O)O)C(=O)N[C@@H](CCC(=O)O)C(=O)N[C@@H](CCC(N)=O)C(=O)N[C@@H](Cc1ccccc1)C(=O)N[C@H](C(=O)N[C@@H](CCC(=O)O)C(=O)N[C@@H](CC(C)C)C(=O)N[C@@H](Cc1ccc(O)cc1)C(=O)NCC(=O)N[C@H](C(=O)N[C@@H](CCC(=O)O)C(=O)N[C@@H](CCC(=O)O)C(=O)N[C@@H](Cc1ccc(O)cc1)C(N)=O)[C@@H](C)O)C(C)C [TBK1_164–179 E]	2.1

Attention now turns to another entry.
Q: Reported Kd for MAP1LC3B (Homo sapiens), given CC(=O)N[C@@H](CC(C)C)C(=O)N[C@@H](CCC(=O)O)C(=O)N[C@@H](CC(=O)O)C(=O)N[C@@H](CC(=O)O)C(=O)N[C@@H](CCC(=O)O)C(=O)N[C@@H](CCC(N)=O)C(=O)N[C@@H](Cc1ccccc1)C(=O)N[C@H](C(=O)N[C@@H](CO)C(=O)N[C@@H](CC(C)C)C(=O)N[C@@H](Cc1ccc(O)cc1)C(=O)NCC(=O)N[C@H](C(=O)N[C@@H](CCC(=O)O)C(=O)N[C@@H](CCC(=O)O)C(=O)N[C@@H](Cc1ccc(O)cc1)C(N)=O)[C@@H](C)O)C(C)C [TBK1_164–179 wt] ?
A: 10.5

* * *

Let's look at some compounds and their measured Kd.
- study.target: Clathrin NTD (Homo sapiens, UniProt Q00610)
- Construct: GST (cleaved yes); made in house; host or cells: Escherichia coli BL21-Gold(DE3)
- Sequence (Q00610 1-364): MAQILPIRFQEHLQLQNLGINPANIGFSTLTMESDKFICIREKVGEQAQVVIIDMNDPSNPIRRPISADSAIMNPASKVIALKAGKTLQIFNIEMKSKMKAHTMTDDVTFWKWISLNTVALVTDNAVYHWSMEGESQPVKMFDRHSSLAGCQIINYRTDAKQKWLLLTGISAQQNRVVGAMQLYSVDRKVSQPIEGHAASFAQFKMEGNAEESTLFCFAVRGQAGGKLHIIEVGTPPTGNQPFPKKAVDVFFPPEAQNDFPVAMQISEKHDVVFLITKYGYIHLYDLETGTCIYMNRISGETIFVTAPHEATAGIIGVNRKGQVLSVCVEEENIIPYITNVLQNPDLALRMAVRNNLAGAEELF
- test.description: FP displacement assay, clathrin NTD
- Type: binding
Non-standard residues stand in square brackets, D forms with d. Residues, ends and D or L forms follow the SMILES beside them. pS = N[C@@H](COP(=O)(O)O)C(=O)O

CC[C@H](C)[C@H](NC(=O)[C@H](CC(C)C)NC(=O)[C@H](CC(N)=O)NC(=O)CNC(=O)CNC(=O)[C@H](Cc1ccc(O)cc1)NC(C)=O)C(=O)N[C@H](C(=O)N[C@@H](Cc1ccccc1)C(=O)N[C@@H](COP(=O)(O)O)C(=O)N1CCC[C@H]1C(=O)N[C@@H](CC(C)C)C(=O)N[C@@H](CCC(N)=O)C(=O)N1CCC[C@H]1C(=O)NCC(=O)N[C@@H](CCC(=O)O)C(=O)N[C@@H](Cc1ccccc1)C(N)=O)[C@@H](C)O [HURP832–846 pS] (Ac-YGGNLITF[pS]PLQPGEF-NH2)	< 3 µM
CC[C@H](C)[C@H](NC(=O)[C@H](CC(C)C)NC(=O)[C@H](CCC(N)=O)NC(=O)CNC(=O)[C@H](Cc1ccc(O)cc1)NC(C)=O)C(=O)N[C@@H](CC(=O)O)C(=O)N[C@@H](CC(C)C)C(=O)N[C@@H](CO)C(=O)N[C@@H](CO)C(=O)N1CCC[C@H]1C(=O)N[C@@H](CC(C)C)C(=O)N[C@H](C(=O)N[C@@H](CCC(N)=O)C(=O)N[C@@H](CC(C)C)C(=O)N[C@@H](CO)C(=O)N1CCC[C@H]1C(=O)N[C@@H](CCC(=O)O)C(N)=O)[C@@H](C)CC [GTSE1_692–707] (Ac-YGQLIDLSSPLIQLSPE-NH2)	~100 µM

Attention now turns to another entry.
Q: What Kd value was documented for this compound, CC[C@H](C)[C@H](NC(=O)[C@H](CC(C)C)NC(=O)[C@H](CC(N)=O)NC(=O)CNC(=O)CNC(=O)[C@H](Cc1ccc(O)cc1)NC(C)=O)C(=O)N[C@H](C(=O)N[C@@H](Cc1ccccc1)C(=O)N[C@@H](COP(=O)(O)O)C(=O)N1CCC[C@H]1C(=O)N[C@@H](CC(C)C)C(=O)N[C@@H](CCC(N)=O)C(=O)N1CCC[C@H]1C(=O)NCC(=O)N[C@@H](CCC(=O)O)C(=O)N[C@@H](Cc1ccccc1)C(=O)O)[C@@H](C)O [HURP832–846 pS Cterm] (Ac-YGGNLITF[pS]PLQPGEF-OH) ?
A: < 3 µM

Source: paper PMC10333884
